B1: Pituitary-specific positive transcription factor 1, residues 130 to 198; numbered along this chain, P28069 (parent)
chain: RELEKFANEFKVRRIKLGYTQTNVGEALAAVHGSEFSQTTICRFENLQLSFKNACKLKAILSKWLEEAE

Variants of: B1
protocol_description: abundance fitness (aPCA) (normalised: wild type 0, dead -1); higher = more abundant; growth selection in yeast, the domain comes from the species named
cond: Homo sapiens
experimental_readout: abundance fitness
Give bare numbers.

# example entries with known answers
residue_change=L57E measured=-0.345
residue_change=F10P measured=-0.931
residue_change=A30C measured=-0.127
residue_change=S62V measured=-0.167
residue_change=I15G measured=-0.404

Give me abundance fitness for each of these variants, listed below.
1. A59V
2. L17I

[reply]
0.116
-0.709

Give me abundance fitness for each of these variants, listed below.
1. A54Q
2. T22L
3. T40N
4. S62E
5. E67Y

[reply]
1. -0.473
2. -0.156
3. -0.71
4. 0.016
5. -0.36

Give me abundance fitness for each of these variants, listed below.
1. T22E
2. V31M
3. T40Q
4. L47M
5. K16N

[reply]
1. 0.491
2. -0.135
3. -0.211
4. 0.263
5. -0.122

Give me abundance fitness for each of these variants, listed below.
1. A54V
2. R14C
3. K11E
4. T22S
5. R14E
6. E66N
7. L61R

[reply]
-0.756
-0.79
-0.786
0.106
-0.952
-0.373
-1.04
